Biological target: human TREK-1 receptor (Homo sapiens, UniProt O95069)
Construct: expressed in transfected cells
Sequence (O95069 whole entry): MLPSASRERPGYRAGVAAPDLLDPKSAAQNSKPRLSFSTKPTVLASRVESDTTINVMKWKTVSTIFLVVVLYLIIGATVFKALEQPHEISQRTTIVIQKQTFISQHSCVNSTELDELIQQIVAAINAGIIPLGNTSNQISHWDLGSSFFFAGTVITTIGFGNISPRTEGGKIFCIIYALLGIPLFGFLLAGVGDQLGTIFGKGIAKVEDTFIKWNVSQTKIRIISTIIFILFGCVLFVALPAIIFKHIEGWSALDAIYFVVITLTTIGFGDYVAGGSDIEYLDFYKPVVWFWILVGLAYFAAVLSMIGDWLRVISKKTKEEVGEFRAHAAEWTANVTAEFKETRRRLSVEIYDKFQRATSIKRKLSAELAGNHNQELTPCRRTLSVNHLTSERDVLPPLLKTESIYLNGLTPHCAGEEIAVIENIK
Assay: TREK receptor screening: TREK-1 mediated currents by manual patch clamp in transfected frog oocytes
Format: cell-based
Settings: at 1 mMol; None = 1.000
MEASUREMENT KIND: Blockade of TREK-1 receptor, F.I.

COMPOUND	Blockade of TREK-1 receptor, F.I.
CCCCCCC(O)CO (centres unmarked)	0.855
CCCCCCCCC(O)CO (centres unmarked)	0.773
CNCCC(Oc1ccc(C(F)(F)F)cc1)c1ccccc1 (centres unmarked) [Fluoxetine, reference compound]	0.679
CCCCC(O)CO (centres unmarked)	0.942
CCCCCCCCCCC(O)CO (centres unmarked)	0.733
